Reference source for all entries: PubChem BioAssay (NCI)

test system: OVCAR-3 ovarian; experiment: NCI-60 one-dose screen, 48 h (100 = growth as untreated, 0 = no growth, -100 = all killed); details: 10 µM
Compounds without any hit were thinned out: in the full panel of roughly 83,000, 20% have a hit.
Below: a set of entries, each annotated with reported growth.
# output: bare number, implied unit %

Example cases with answers are listed next.
q: If you can, please state the reported growth value of CN(C)CCc1cn(C2CCC2)c2cccc(O)c12 .
a: 93.6

q: Moving on to COc1cc(OC)c(S(=O)(=O)N(CCCl)CCCl)cc1C(=O)/C=C/c1cc(OC)c(OC)c(OC)c1
a: -3.7

Others:
q: If you can, please state the reported growth value of CC[C@]12C=CCN3CC[C@@]4(c5ccc(OC)cc5N(C)[C@H]4[C@@](O)(C(=O)OC)[C@@H]1OC(=O)CCC[P+](c1ccc(F)cc1)(c1ccc(F)cc1)c1ccc(F)cc1)[C@@H]32 .
a: 21.1

q: Moving on to CC[C@@]12CC(C(=O)OC)=C3Nc4cc5c(cc4[C@@]34CCN(C[C@H]3O[C@H]31)[C@@H]24)[C@@H]1[C@H](O5)[C@@H](O)[C@@]2(CC)CC(C(=O)OC)=C3Nc4cc(OC)ccc4[C@@]34CCN1[C@@H]24
a: 7.91

q: Moving on to CC[C@]12C=CCN3CC[C@@]4(c5ccc(OC)cc5N(C)[C@H]4[C@@](O)(C(=O)OC)[C@@H]1OC(=O)CCCC[P+](c1ccc(C)cc1)(c1ccc(C)cc1)c1ccc(C)cc1)[C@@H]32
a: -77.1

q: Moving on to C=CC[Se]C(=O)c1cncc(C(=O)[Se]CC=C)c1
a: -89.5

q: Moving on to CC12CCC3(CCC(=O)NCCCNc4ccnc5cc(Cl)ccc45)[C@@](C)(OO[C@]3(C)O1)O2
a: 30.8

----------
tested on: SF-268 CNS; assay: NCI-60 one-dose screen, 48 h (100 = growth as untreated, 0 = no growth, -100 = all killed); details: 10 µM
The panel holds about 83,000 compounds, 20% with a hit somewhere; the sample as a whole holds those more often.
Below: a set of entries, each annotated with reported growth.
# output: bare number, implied unit %

Example cases with answers are listed next.
q: If you can, please state the reported growth value of CC[C@]12C=CCN3CC[C@@]4(c5ccc(OC)cc5N(C)[C@H]4[C@@](O)(C(=O)OC)[C@@H]1OC(=O)CCC[P+](C1CCCCC1)(C1CCCCC1)C1CCCCC1)[C@@H]32 .
a: -54.1

q: Moving on to COCCOCCOCCOc1ccc(-n2cc(-c3ccc(O[C@H]4O[C@@H]5OC6(C)CC[C@H]7[C@H](C)CC[C@@H]([C@H]4C)[C@@]57OO6)cc3)nn2)cc1
a: 59

q: Moving on to COc1cc(OC)c(S(=O)(=O)N(CCCl)CCCl)cc1C(=O)/C=C/c1cc(OC)c(OC)c(OC)c1
a: 2.74

q: Moving on to C#CC[Se]C(=O)c1ccc(C(=O)[Se]CC#C)s1
a: 105

q: Moving on to CC(C)N=C([Se])NC(=O)c1ccccc1
a: 14.3

Others:
q: If you can, please state the reported growth value of C#CC[Se]C(=O)c1ccc2n[se]nc2c1 .
a: 89.4

q: Moving on to C[C@H]1[C@H](OC(=O)CCC(=O)N(CCCc2cn(-c3ccc([N+](=O)[O-])cc3)nn2)CCNc2ccnc3cc(Cl)ccc23)O[C@@H]2OC3(C)CC[C@H]4[C@H](C)CC[C@@H]1[C@@]24OO3
a: 59.5

q: Moving on to CN(C)CCc1cn(C2CCC2)c2cccc(O)c12
a: 81.6

----------
Below: a set of entries, each annotated with reported growth.
system: CCRF-CEM leukemia; assay: NCI-60 one-dose screen, 48 h (100 = growth as untreated, 0 = no growth, -100 = all killed); settings: 10 µM
About 83,000 compounds went through this panel and 20% of them were active in at least one assay; those are over-represented in the sample as a whole.
# output: bare number, implied unit %

q: growth of CN(C)CCc1cn(C2CCC2)c2cccc(O)c12 on CCRF-CEM leukemia?
a: 56.6

q: Moving on to CC1=C(CCC=NNC(N)=O)C2=C(C)C3(CC3)[C@@](C)(O)C(=O)C2=C1
a: 10.4

q: Moving on to C[C@H]1[C@H](OC(=O)CCC(=O)Nc2cnccn2)O[C@@H]2OC3(C)CC[C@H]4[C@H](C)CC[C@@H]1[C@@]24OO3
a: 35.4

q: Moving on to CC[C@@]12CC(C(=O)OC)=C3Nc4cc5c(cc4[C@@]34CCN(C[C@H]3O[C@H]31)[C@@H]24)[C@@H]1[C@H](O5)[C@@H](O)[C@@]2(CC)CC(C(=O)OC)=C3Nc4cc(OC)ccc4[C@@]34CCN1[C@@H]24
a: 15

q: Moving on to CC1=C(CCC=O)C2=C(C)C3(CC3)[C@@](C)(O)C(=O)C2=C1
a: -15.3

q: Moving on to CC1=C(C=O)C2=C(C)C3(CC3)[C@@](C)(O)C(=O)C2=C1
a: 18

q: Moving on to CC(C)C[C@H](NC(=O)CNC(=O)C[C@H]1O[C@@H]2OC3(C)CC[C@H]4[C@H](C)CC[C@@H]([C@H]1C)[C@@]24OO3)B(O)O
a: -9.96

q: Moving on to CC12OOC(C)(OO1)C2CCC(=O)OCCNc1ccnc2cc(Cl)ccc12 (stereo not drawn)
a: 9.26

Others:
q: growth of N#C[Se]CC(=O)Nc1cccc(C(F)(F)F)c1 on CCRF-CEM leukemia?
a: 22.5

q: Moving on to CC(=O)Oc1ccccc1C(=O)[Se]C(=NC(C)C)NC(C)C
a: -1.77

q: Moving on to COc1cc2cc(C(=O)N3C[C@@H](CCl)c4c3cc(OC(=O)N3CCN(C)[C@@H]5CSSC[C@@H]53)c3ccccc43)[nH]c2c(OC)c1OC
a: -25.1

q: Moving on to C[C@H]1[C@H](OC(=O)CCC(=O)N(CCCc2cn(-c3ccc([N+](=O)[O-])cc3)nn2)CCNc2ccnc3cc(Cl)ccc23)O[C@@H]2OC3(C)CC[C@H]4[C@H](C)CC[C@@H]1[C@@]24OO3
a: 26.3

q: Moving on to O=C(/C=C/c1ccccc1)c1nc2ccccc2n1Cc1ccc(Br)cc1
a: -7.81

q: Moving on to CC12OOC(C)(OO1)C2CCC(=O)NCCCNc1ccnc2cc(Cl)ccc12 (stereo not drawn)
a: 3.13

q: Moving on to O=C(/C=C/c1ccc(Cl)cc1)c1nc2ccccc2n1Cc1ccc(F)cc1
a: -13.1

q: Moving on to CC1=C(COCCOC(=O)c2ccc(S(=O)(=O)F)cc2)C2=C(C)C3(CC3)[C@@](C)(O)C(=O)C2=C1
a: 15.8

q: Moving on to COc1cc(OC)c(S(=O)(=O)N(CCCl)CCCl)cc1C(=O)/C=C/c1ccc(C)cc1
a: 70.7

q: Moving on to O=C(/C=C/c1ccco1)c1nc2ccccc2n1Cc1ccc(Br)cc1
a: -6.79

q: Moving on to O=C(/C=C/c1ccc(Cl)cc1)c1nc2ccccc2n1Cc1ccc(Br)cc1
a: -10.9

----------
system: HL-60(TB) leukemia; experiment: NCI-60 one-dose screen, 48 h (100 = growth as untreated, 0 = no growth, -100 = all killed); conditions: 10 µM unless noted
The panel holds about 83,000 compounds, 20% with a hit somewhere; the sample as a whole holds those more often.
experimentalEndpoint: growth (%)
# output: bare number, implied unit %

q: growth of Cc1ccc(-c2nc(C#N)c(S(=O)(=O)N3CCN(S(=O)(=O)c4ccccc4)CC3)o2)cc1 on HL-60(TB) leukemia?
a: -44.9

q: Moving on to COc1cc(/C=C/C(=O)c2nnn(-c3ccc(Cl)cc3)c2C)cc(OC)c1OC
a: -5.43

q: Moving on to NS(=O)(=O)c1ccc(NC(=O)CSc2ccc(-c3ccccc3)nn2)c(Br)c1
a: 99.2

q: Moving on to Cc1ccc(/C=C/C(=O)c2ccc(S(=O)(=O)NCCNc3nc(Nc4ccc(F)cc4)nc(N(C)C)n3)cc2)cc1
a: 13.5

q: Moving on to Cc1ccc2nc(COc3ccc(C(=O)NNC(=S)NCCc4ccccc4)cc3)[nH]c2c1
a: 99.7

q: Moving on to COc1ccccc1[C@H]1C(C(=O)c2ccc(O)cc2)C2(N[C@@H]1c1ccccc1)C(=O)Nc1ccc(Br)cc12 (some centres undefined)
a: 10.5

q: Moving on to NS(=O)(=O)c1ccc(N=Nc2c(O)n(CC(=O)Nc3ccccc3Cl)c3ccccc23)cc1
a: 45.8

q: Moving on to C=CC(=O)N1CCN(c2ccc3nc4c(nc3c2C(F)(F)F)C(=O)c2ncccc2C4=O)CC1
a: -24.7

Now turn to the next compound.
q: growth of COc1ccc2[nH]c(O)c(N=NC(=O)Cn3c(-c4ccccc4)nc4cc(C)ccc43)c2c1 on HL-60(TB) leukemia?
a: -50.8
